- System: MALME-3M melanoma
- Method: NCI-60 one-dose screen, 48 h (100 = growth as untreated, 0 = no growth, -100 = all killed)
- Condition parameters: 10 µM unless noted
About 83,000 compounds went through this panel and 20% of them were active in at least one assay; those are over-represented in the sample as a whole.
Each record here notes measured growth.
Give the value, in units of %, as a plain number.

# count of solved cases: 3
- Compound: "Cc1cc(NCCCCNc2ccnc3cc(Cl)ccc23)nc(Nc2ccc(C(=O)N3CCCCC3)cc2)n1"
  Measured on: "MALME-3M melanoma"
  growth, %: -76.3
- Compound: "COc1cccc(-c2nc3sccn3c2/C=C/C(=O)c2ccc(C(F)(F)F)cc2)c1"
  Measured on: "MALME-3M melanoma"
  growth, %: 104
- Compound: "O=C1CCC2=C3C4CCCCC4C(=O)C4CCCC(OC2C1)C34 (stereo not given)"
  Measured on: "MALME-3M melanoma"
  growth, %: -33

// growth lookup, key: O=C(CCCCCCN1CC(=O)N2[C@@H](c3ccccc3Cl)c3[nH]c4ccccc4c3C[C@H]2C1=O)NO 21.9

// growth lookup, key: NC(=S)Nc1cccc(O)c1 102

// growth lookup, key: COc1cc(Cn2ncc3ccc(NC(=O)c4cc5ccccc5oc4=N)cc32)cc(OC)c1OC 54

// growth lookup, key: CCCCCCCCCCCC(c1ccccc1)[N+](C)(C)C (stereo not given) 5.27

// growth lookup, key: CC(CN1CCCCC1)C(=O)c1ccccc1 (stereo not given) 107

// growth lookup, key: NC(N)=NN=C(c1ccccc1)c1ccccc1 48.8

// growth lookup, key: CC1=C(SCCC(=O)OC(C[Se]C2=C(C)C(=O)c3ccccc3C2=O)C(=O)NCCCCCC(=O)OCc2ccccc2)C(=O)c2ccccc2C1=O (stereo not given) 45.6

---

- System: NCI-H23 lung
- Method: NCI-60 one-dose screen, 48 h (100 = growth as untreated, 0 = no growth, -100 = all killed)
- Condition parameters: 10 µM unless noted
The panel holds about 83,000 compounds, 20% with a hit somewhere; the sample as a whole holds those more often.
Just so you know, the groups by growth go like this: class A (below 40%), class B (40% to below 90%), class C (90% or more)

Record excerpt, results attached:
- Molecule: "C=C(C)[C@@H]1CC[C@]2(C(=O)NC3CCCCC3)CC[C@]3(C)[C@H](CC[C@@H]4[C@@]5(C)CCCNC(C)(C)[C@@H]5CC[C@]43C)[C@@H]12"
  Assigned category: "class B"
- Molecule: "Cc1c(Cl)cc(-n2c(=O)c3ccccc3c3ccccc3c2=O)cc1Cl"
  Assigned category: "class C"
- Molecule: "N#Cc1c(-c2ccccn2)[nH]c(=S)[nH]c1=O"
  Assigned category: "class C"
- Molecule: "OC(COc1ccccc1Cl)COc1ccccc1Cl"
  Assigned category: "class C"
- Molecule: "Fc1ccc(CNc2c3ccccc3nc3ccccc23)cc1F"
  Assigned category: "class A"

Now consider the entry below.
Kindly identify the class of Nc1n[nH]c2cc(F)c([C@@H]3Nc4c(F)cc5[nH]ncc5c4[C@H]4C5CCC(C5)[C@@H]34)cc12 (stereo not given in full) . class A

---

- System: M14 melanoma
- Method: NCI-60 one-dose screen, 48 h
- Condition parameters: 10 µM unless noted
The panel holds about 83,000 compounds, 20% with a hit somewhere; the sample as a whole holds those more often. Active and inactive are the calls of the source. Rule for the calls: active = growth percent below 10; inactive = the rest.
Lab note: assign the record to one of active, inactive

Record excerpt, results attached:
- Compound: "COC(=O)[C@]12CC[C@@H](C)[C@H](C)[C@@H]1C1=CC[C@@H]3[C@@]4(C)C(C=O)=C[C@@](C)(COS(C)(=O)=O)[C@@H]4C(=O)C[C@@]3(C)[C@]1(C)CC2"
  Measured on: "M14 melanoma"
  Assigned category: "inactive"
- Compound: "COc1cccc(/C=C/C(=O)c2c(C)nc3ccccc3c2/C=C/c2ccc(C)cc2)c1OC"
  Measured on: "M14 melanoma"
  Assigned category: "inactive"

Check the results log: what was the call for CN(C)c1ccc(/C=C/C(=O)c2cccc(Nc3nc(Nc4ccccc4)nc(Nc4ccccc4)n3)c2)cc1 ? inactive

Check the results log: what was the call for O=C1Nc2ccccc2/C1=C/c1cn(C(=O)c2c(Cl)cccc2Cl)c2ccccc12 ? inactive

Check the results log: what was the call for C[n+]1cccc(CC(=O)NO)c1 ? inactive

Check the results log: what was the call for O=C(Nc1ccccc1)Nc1cccc(Oc2nnc(Cl)c3ccccc23)c1 ? inactive

---

- Test system: RXF 393 renal
- Method: NCI-60 one-dose screen, 48 h
- Condition parameters: 10 µM unless noted
The panel holds about 83,000 compounds, 20% with a hit somewhere; the sample as a whole holds those more often. The source made the active and inactive calls. Rule for the calls: active = growth percent below 10; inactive = the rest.
Lab note: assign the record to one of active, inactive

Record excerpt, results attached:
- Smiles text: "COc1ccc2c(c1)[nH]c(=O)c1c3cccnc3cn21"
  Measured on: "RXF 393 renal"
  Assigned category: "inactive"
- Smiles text: "C[n+]1cc2cc(C(N)=O)[nH]c3c(=N)c(Cl)c(N)c1c23"
  Measured on: "RXF 393 renal"
  Assigned category: "inactive"

Check the results log: what was the call for CCN(CC)CCN1C(=O)c2c(c(C)c3c(oc4cc(O)ccc43)c2C)C1=O ? inactive

Check the results log: what was the call for N/C(=N\c1nc2ccccc2s1)NC(=O)Nc1cccc(Cl)c1 ? inactive

Check the results log: what was the call for Cc1c2c(c(C)c3c1oc1cc(O)ccc13)C(=O)N(CCN1CCCCC1)C2=O ? inactive

Check the results log: what was the call for Cc1ccc(S(=O)(=O)Oc2cc(OS(=O)(=O)c3ccc(C)cc3)cc(OS(=O)(=O)c3ccc(C)cc3)c2)cc1 ? inactive

Check the results log: what was the call for O=C(COc1ccc(/C=C2\Oc3ccccc3C2=O)cc1)c1ccc(Cl)cc1 ? inactive

Check the results log: what was the call for COc1ccc2[nH]c(O)c(/C=c3/cc4c(c(-c5ccc(F)c(OC)c5)n3)=Nc3ccccc3-4)c2c1 ? active

Check the results log: what was the call for CCN(CC)c1ccc(C(=O)c2ccc(N(CC)CC)cc2)cc1 ? active

---

- Tested on: SK-MEL-5 melanoma
- Method: NCI-60 one-dose screen, 48 h (100 = growth as untreated, 0 = no growth, -100 = all killed)
- Condition parameters: 10 µM unless noted
About 83,000 compounds went through this panel and 20% of them were active in at least one assay; those are over-represented in the sample as a whole. Active and inactive are the calls of the source. Rule for the calls: active = growth percent below 10; inactive = the rest.
Each record here notes measured growth.

# count of solved cases: 5
- Compound: "c1ccc2cc3nc4cc5ccccc5cc4nc3cc2c1"
  Measured on: "SK-MEL-5 melanoma"
  growth: "102% (inactive)"
- Compound: "COc1cccc(C(=O)NCCNc2cc(-c3cn(-c4ccccc4)nc3-c3cccc(OC)c3)ccn2)c1"
  Measured on: "SK-MEL-5 melanoma"
  growth: "39.3% (inactive)"
- Compound: "O=Cc1ccc(O)c2ncccc12"
  Measured on: "SK-MEL-5 melanoma"
  growth: "44% (inactive)"
- Compound: "O=C(CCCCCCN1CC(=O)N2[C@@H](c3ccccc3Cl)c3[nH]c4ccccc4c3C[C@H]2C1=O)NO"
  Measured on: "SK-MEL-5 melanoma"
  growth: "46.9% (inactive)"
- Compound: "Cn1cc(-c2csc(-c3ccccc3)n2)c2cccnc21"
  Measured on: "SK-MEL-5 melanoma"
  growth: "-83.2% [100 µM] (active)"

// growth lookup, key: O=C1OC(c2nc3ccccc3s2)=C/C1=C\c1ccc(O)cc1 104% (inactive)

// growth lookup, key: Cc1cc(Cl)ccc1Nc1nc(C(F)(F)F)ccc1C(=O)N/N=C/c1ccc(N(C)C)cc1 12.9% (inactive)

---

Each record here notes measured growth.
- Test system: HCC-2998 colon
- Method: NCI-60 one-dose screen, 48 h (100 = growth as untreated, 0 = no growth, -100 = all killed)
- Condition parameters: 10 µM unless noted
About 83,000 compounds went through this panel and 20% of them were active in at least one assay; those are over-represented in the sample as a whole.
Give the value, in units of %, as a plain number.

- Molecule: "O=c1c2c3c(sc2n2c(-c4cn(-c5ccccc5)nc4-c4ccc(Cl)cc4)nnc2n1Cc1ccccc1)CCCC3"
  U: "%"
  growth: 99.1
- Molecule: "Clc1cc(Cl)cc(Nc2ccc3cc(OCCCN4CCOCC4)ccc3n2)c1"
  U: "%"
  growth: -17.6
- Molecule: "N#Cc1c(-c2cccc(Cl)c2)cc(-c2cccc(Cl)c2)[nH]c1=O"
  U: "%"
  growth: 82.6
- Molecule: "COc1cc(CCC[P+](c2ccccc2)(c2ccccc2)c2ccccc2)cc2c1OCO2"
  U: "%"
  growth: 24.3
- Molecule: "N#Cc1c(-c2ccccn2)[nH]c(=S)[nH]c1=O"
  U: "%"
  growth: 106
- Molecule: "COc1ccc(NC(=O)CSc2nc(C)c(C(C)=O)n2-c2ccc(Cl)cc2)cc1"
  U: "%"
  growth: 90.3
- Molecule: "Cc1ccc(-n2c(-c3ccccc3)c(-c3ccccc3)c3c(SCC(=O)n4[nH]c(N)cc4=O)ncnc32)cc1"
  U: "%"
  growth: 113
- Molecule: "COc1cccc(-c2nc3sccn3c2-c2ccnc(NCCNS(=O)(=O)c3cccc(Cl)c3)c2)c1"
  U: "%"
  growth: 64.2
- Molecule: "CN(C)c1ccc(/C=C/C(=O)c2cccc(Nc3nc(Nc4ccccc4)nc(Nc4ccccc4)n3)c2)cc1"
  U: "%"
  growth: 64.5
- Molecule: "N#CCN1C(=O)C2C3=C(CCCC3)SC2N=C1CN1CCCC1 (stereo not given)"
  U: "%"
  growth: 96.9

What value of growth on HCC-2998 colon does CCOc1ccccc1-c1cc(-c2cccs2)c(C#N)c(=O)[nH]1 have? 92.2

What value of growth on HCC-2998 colon does Cc1ccc2c(c1)Sc1c(ccc3ccccc13)N2 have? 67.6

What value of growth on HCC-2998 colon does COc1ccc2[nH]c(O)c(C(=Nc3ccc(N(C)C(=O)CN4CCN(C)CC4)cc3)c3ccccc3)c2c1 have? 34.3
